# assayConditions: in water, 312.18 K
quantityKind: solubility (mole fraction)
API doc: respond with a numeric literal and nothing else, no unit.

For this molecule ( `C1N2CN3CN1CN(C2)C3` ), measured solubility (mole fraction) is 0.0948

----------
# assayConditions: in ethanol, 303.4 K
quantityKind: solubility (mole fraction)
API doc: respond with a numeric literal and nothing else, no unit.

For this compound ( `C1N2CN3CN1CN(C2)C3` ), measured solubility (mole fraction) is 0.012

----------
# assayConditions: in methanol, 330.85 K
quantityKind: solubility (mole fraction)
API doc: respond with a numeric literal and nothing else, no unit.

For this compound ( `C1N2CN3CN1CN(C2)C3` ), measured solubility (mole fraction) is 0.0353
